Test system: FLK-1 receptor
METHOD DESCRIPTION: FLK-1 Assay (cellular/catalytic ELISA, VEGF-stimulated phosphotyrosine)
Assay type: cell-based
Set-up: concentration or dose not given beside the values
READOUT TYPE: Flk Kinase % Inhibition (P.110) (%)
Answer in %, number only, no unit symbol.

// Cc1c(Br)ccc2c1C(=Cc1cc(Br)cc(Br)c1O)C(=O)N2 [10734/C07] : Flk Kinase % Inhibition (P.110) value = −2.7

// field: Flk Kinase % Inhibition (P.110); key: Cc1c(Br)cc(Br)c2c1C(=Cc1ccco1)C(=O)N2 [10718/H10] ; value = 1.4

Here is another molecule to look at.
So for Cc1c(Br)cc(Br)c2c1C(=Cc1c(F)cc(F)cc1F)C(=O)N2 [10720/H02] , the logged Flk Kinase % Inhibition (P.110) turned out to be 9.7
